These entries and their values trace back to patent US6100074A.

# Tgt: P450cam mutant Y96V, C334A (Pseudomonas putida, UniProt P00183, C335A/Y97V)
# Construct: reconstituted with putidaredoxin and putidaredoxin reductase
# Sequence (P00183 2-415 Y97V/C335A, one chain of several): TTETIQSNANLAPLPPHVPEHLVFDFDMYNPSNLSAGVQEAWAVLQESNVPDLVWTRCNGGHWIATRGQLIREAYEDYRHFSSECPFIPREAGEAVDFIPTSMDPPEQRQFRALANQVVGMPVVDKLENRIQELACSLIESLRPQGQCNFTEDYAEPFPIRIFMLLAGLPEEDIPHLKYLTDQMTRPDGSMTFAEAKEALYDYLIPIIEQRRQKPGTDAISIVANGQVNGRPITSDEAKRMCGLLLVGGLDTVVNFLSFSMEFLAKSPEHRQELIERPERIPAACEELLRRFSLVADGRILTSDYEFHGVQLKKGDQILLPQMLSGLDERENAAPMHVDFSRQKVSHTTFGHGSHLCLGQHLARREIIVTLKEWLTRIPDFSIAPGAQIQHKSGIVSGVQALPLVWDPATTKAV
# Test Method Notes: Product distribution following oxidation of substrates, Y96V (also C334A)
# Format: biochemical, P. putida
Reported Total products by item:
Write it as a number; the unit area/10^6 goes unstated.

{"columns": ["Smiles String", "Readout Unit", "Total products"],
 "data": [
  ["c1cc2ccc3cccc4ccc(c1)c2c34", "area/10^6", 1.6]
]}

API: the following record is the query input.
Total products for c1ccc2c(c1)ccc1ccccc12 is 1.6

---

# Tgt: P-450cam mutant Y96A (Pseudomonas putida, UniProt P00183, Y97A)
# Sequence (P00183 2-415 Y97A): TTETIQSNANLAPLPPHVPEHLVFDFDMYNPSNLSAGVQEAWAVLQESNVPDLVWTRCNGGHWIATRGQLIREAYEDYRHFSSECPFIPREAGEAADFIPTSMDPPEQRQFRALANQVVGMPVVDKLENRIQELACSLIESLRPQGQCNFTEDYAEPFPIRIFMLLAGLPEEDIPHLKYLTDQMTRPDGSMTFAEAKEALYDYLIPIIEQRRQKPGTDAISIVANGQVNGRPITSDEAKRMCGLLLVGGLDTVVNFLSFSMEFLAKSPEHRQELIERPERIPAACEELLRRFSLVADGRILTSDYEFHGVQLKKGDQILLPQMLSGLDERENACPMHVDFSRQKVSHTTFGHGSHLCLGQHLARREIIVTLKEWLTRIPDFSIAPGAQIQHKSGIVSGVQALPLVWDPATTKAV
# Test Method Notes: Kapp (dissociation constant), substrate binding, Y96A
pKd: −log10 of the molar value.
Rule: True for pKd not less than 5, False for anything less.

See these solved cases before continuing.
{"columns": ["Compound", "Class"],
 "data": [
  ["c1ccc(Cc2ccccc2)cc1 [compound 5, diphenylmethane]", "False"],
  ["O=C1C2CC3CC(C2)CC1C3 [compound 2, adamantanone]", "False"],
  ["C1CC2CCC1C2 [compound 4, norbornane]", "False"]
]}

From here, focus on the item given below.
INPUT: Assess whether reported pKd for C1C2CC3CC1CC(C2)C3 [compound 3, adamantane] sits at 5 or higher.
OUTPUT: True

---

# Tgt: P450cam mutant Y96A, C334A (Pseudomonas putida, UniProt P00183, C335A/Y97A)
# Construct: reconstituted with putidaredoxin and putidaredoxin reductase
# Sequence (P00183 2-415 Y97A/C335A, one chain of several): as the sequence (P00183 2-415 Y97V/C335A, one chain of several) above, with V96A counted along it
# Format: biochemical, P. putida
# Measurement Conditions: also contains C334A
Reported Turnover rate measured as NADH consumption rate by item:

# count of solved cases: 5
{"columns": ["Compound", "Result"],
 "data": [
  ["CCC(C)C [2-methyl butane]", "4.6 nmole NADH/nmole P450cam/s"],
  ["CCCCCC(C)C [2-methyl heptane]", "2.1 nmole NADH/nmole P450cam/s"],
  ["CCCCCCC [n-Heptane]", "4.4 nmole NADH/nmole P450cam/s"],
  ["C1CCCCCC1 [cycloheptane]", "42.5 nmole NADH/nmole P450cam/s"],
  ["CCC(C)CC [3-methyl pentane]", "14.2 nmole NADH/nmole P450cam/s"]
]}

Turnover rate measured as NADH consumption rate for CCCCCCCC [n-Octane] is 5.8 nmole NADH/nmole P450cam/s

Turnover rate measured as NADH consumption rate for CC(C)C(C)C [2,3-dimethyl butane] is 16.8 nmole NADH/nmole P450cam/s

Turnover rate measured as NADH consumption rate for CCC(C)(C)C [2,2-dimethyl butane] is 14.0 nmole NADH/nmole P450cam/s

Turnover rate measured as NADH consumption rate for CCCCC [n-Pentane] is 5.8 nmole NADH/nmole P450cam/s

---

# Tgt: wild type P450cam (Pseudomonas putida)
# Test Method Notes: Turnover rate measured as NADH consumption rate, wild type
# Assay type: biochemical, P. putida
# Design: reconstituted with putidaredoxin and putidaredoxin reductase
# Sequence (P00259 whole entry): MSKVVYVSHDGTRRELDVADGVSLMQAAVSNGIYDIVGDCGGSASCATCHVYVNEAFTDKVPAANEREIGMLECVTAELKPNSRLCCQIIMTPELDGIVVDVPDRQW
# Sequence (P00183 whole entry): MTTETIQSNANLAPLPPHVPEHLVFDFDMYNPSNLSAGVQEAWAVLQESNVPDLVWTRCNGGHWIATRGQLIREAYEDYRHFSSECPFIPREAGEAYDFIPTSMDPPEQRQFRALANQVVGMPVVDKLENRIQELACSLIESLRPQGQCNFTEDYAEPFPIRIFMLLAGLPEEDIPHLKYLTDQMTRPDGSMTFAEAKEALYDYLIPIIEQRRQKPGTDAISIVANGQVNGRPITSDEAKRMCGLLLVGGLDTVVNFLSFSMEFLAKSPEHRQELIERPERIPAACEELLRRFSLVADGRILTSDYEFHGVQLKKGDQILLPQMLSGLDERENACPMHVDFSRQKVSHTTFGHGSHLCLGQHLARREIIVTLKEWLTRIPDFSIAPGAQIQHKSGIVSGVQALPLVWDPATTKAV
# Sequence (P16640 whole entry, further chain): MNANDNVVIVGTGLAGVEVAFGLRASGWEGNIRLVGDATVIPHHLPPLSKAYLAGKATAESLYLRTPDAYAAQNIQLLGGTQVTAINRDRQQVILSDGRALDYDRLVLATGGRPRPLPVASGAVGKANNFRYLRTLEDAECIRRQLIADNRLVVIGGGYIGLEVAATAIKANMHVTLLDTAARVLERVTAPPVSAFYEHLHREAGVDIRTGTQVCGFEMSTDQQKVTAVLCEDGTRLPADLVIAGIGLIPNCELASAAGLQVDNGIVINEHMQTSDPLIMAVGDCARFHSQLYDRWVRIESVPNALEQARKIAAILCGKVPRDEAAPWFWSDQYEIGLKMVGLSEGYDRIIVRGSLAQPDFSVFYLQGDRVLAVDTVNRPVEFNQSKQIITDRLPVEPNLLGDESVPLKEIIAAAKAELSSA
Reported Turnover rate measured as NADH consumption rate by item:

# count of solved cases: 3
{"columns": ["Smiles String", "Tgt", "Result"],
 "data": [
  ["CCCCCCC", "wild type P450cam (Pseudomonas putida)", "2.7 nmole NADH/nmole P450cam/s"],
  ["CC(C)CC(C)C", "wild type P450cam (Pseudomonas putida)", "0.2 nmole NADH/nmole P450cam/s"],
  ["CC(C)CC(C)(C)C", "wild type P450cam (Pseudomonas putida)", "0.9 nmole NADH/nmole P450cam/s"]
]}

Turnover rate measured as NADH consumption rate for CCCC(C)(C)C is 5.2 nmole NADH/nmole P450cam/s

Turnover rate measured as NADH consumption rate for C1CCCCCC1 is 4.4 nmole NADH/nmole P450cam/s

Turnover rate measured as NADH consumption rate for CCCC(C)CCC is 1.4 nmole NADH/nmole P450cam/s

Turnover rate measured as NADH consumption rate for CCC(C)CC is 1.3 nmole NADH/nmole P450cam/s

Turnover rate measured as NADH consumption rate for CCCC(C)C is 3.8 nmole NADH/nmole P450cam/s

---

# Tgt: wild type P450cam (Pseudomonas putida)
# Test Method Notes: biochemical
# Type: binding
# Measurement Conditions: Wild type; 200 μM DTT, 200 μM test compound, phosphate buffer; read-out: Vs DTT (percentage displacement of DTT bound to P-450)
# Sequence (P00183 whole entry): as the sequence (P00183 whole entry) above
Rule: t for inhibition at 200 µM not less than 10%, f for anything less.

See these solved cases before continuing.
{"columns": ["Compound", "Class"],
 "data": [
  ["O=C(Oc1ccccc1)c1ccccc1 [Phenylbenzoate]", "f"],
  ["CCCCCCC", "f"],
  ["CCCC(=O)Oc1cccc2ccccc12 [1-Naphthylbutyrate]", "f"],
  ["c1ccc(COCc2ccccc2)cc1", "f"],
  ["O=C1c2ccccc2-c2ccccc21", "t"],
  ["CC(=O)Oc1cccc2ccccc12 [1-Naphthylacetate]", "f"],
  ["c1ccc(Cc2ccccc2)cc1", "f"],
  ["CCC(=O)Oc1cccc2ccccc12 [1-Naphthylpropionate]", "t"],
  ["CCCCC", "f"],
  ["CC1CCCCC1", "t"]
]}

INPUT: Assess whether reported inhibition at 200 µM for CC(=O)Oc1ccc2ccccc2c1 [2-Naphthylacetate] sits at 10% or higher.
OUTPUT: f

INPUT: Assess whether reported inhibition at 200 µM for O=C1c2ccccc2Cc2ccccc21 sits at 10% or higher.
OUTPUT: f

INPUT: Assess whether reported inhibition at 200 µM for CC1(C)[C@@H]2CC[C@@]1(C)C(=O)C2=O [(1R)-(-)-Camphorquinone] sits at 10% or higher.
OUTPUT: t

INPUT: Assess whether reported inhibition at 200 µM for C1=CC2C3C=CC(C3)C2C1 (centres unmarked) sits at 10% or higher.
OUTPUT: t

---

Reported pKd by item:
# Tgt: wild type P450cam (Pseudomonas putida, UniProt P00183)
# Test Method Notes: Kapp (dissociation constant), substrate binding, wild-type
# Measurement Conditions: WT; [K+] = 70 mM, phosphate buffer, pH 7.4; average of two measurements
// field semantics: pKd = negative decimal log of concentration (mol/L)

# count of solved cases: 3
{"columns": ["Molecule", "pKd"],
 "data": [
  ["CC12CCC(CC1=O)C2(C)C (centres unmarked) [compound 1, camphor]", 5.20],
  ["C1CC2CCC1C2 [compound 4, norbornane]", 3.48],
  ["O=C1C2CC3CC(C2)CC1C3 [compound 2, adamantanone]", 4.92]
]}

API: the following record is the query input.
The reported pKd value, wild type P450cam (Pseudomonas putida, UniProt P00183), for C1C2CC3CC1CC(C2)C3 [compound 3, adamantane] reads 5.08

---

# Tgt: P-450cam mutant Y96A (Pseudomonas putida, UniProt P00183, Y97A)
# Test Method Notes: biochemical
# Assay type: binding
# Measurement Conditions: Mutant Y96A; 200 μM DTT, 200 μM test compound, phosphate buffer; read-out: Vs DTT (percentage displacement of DTT bound to P-450)
Reported percent displacement of bound DTT at 200 µM by item:
Write it as a number; the unit % goes unstated.

# count of solved cases: 6
{"columns": ["Compound", "Readout Unit", "Number"],
 "data": [
  ["C=Cc1ccccc1 [Styrene]", "%", 30],
  ["CC(C)=CCC/C(C)=C/CC/C(C)=C/CC/C=C(\\C)CC/C=C(\\C)CCC=C(C)C [Squalene]", "%", 20],
  ["CC1(C)C(=O)[C@]2(C)CC[C@H]1C2 [(1R)-(-)-Fenchone]", "%", 80],
  ["C=CC(=C)C [Isoprene]", "%", 10],
  ["CCCCC [n-Pentane]", "%", 40],
  ["c1ccc2c(c1)Cc1ccccc1-2 [Fluorene]", "%", 50]
]}

percent displacement of bound DTT at 200 µM for CCCCCCCCCCCC [n-Dodecane] is 5

percent displacement of bound DTT at 200 µM for CCC(=O)Oc1cccc2ccccc12 [1-Naphthylpropionate] is 20

percent displacement of bound DTT at 200 µM for CC(=O)Oc1ccc2ccccc2c1 [2-Naphthylacetate] is 5

---

# Tgt: P450cam mutant Y96A, C334A (Pseudomonas putida, UniProt P00183, C335A/Y97A)
# Construct: reconstituted with putidaredoxin and putidaredoxin reductase
# Assay type: biochemical, P. putida
Reported Total products by item:
Write it as a number; the unit area/10^6 goes unstated.

# count of solved cases: 2
{"columns": ["Smiles String", "Readout Unit", "Total products"],
 "data": [
  ["c1ccc2c(c1)-c1cccc3cccc-2c13", "area/10^6", 2.7],
  ["c1ccc2c(c1)ccc1ccccc12", "area/10^6", 7.0]
]}

Total products for c1cc2ccc3cccc4ccc(c1)c2c34 is 1.2

---

# Tgt: wild type P450cam (Pseudomonas putida)
# Test Method Notes: Product distribution following oxidation of substrates, WT
# Type: biochemical, P. putida
# Parameters: reconstituted with putidaredoxin and putidaredoxin reductase
Measure: Total products (area/10^6)
Write it as a number; the unit area/10^6 goes unstated.

# count of solved cases: 2
{"columns": ["Smiles String", "Readout Unit", "Total products"],
 "data": [
  ["c1ccc2c(c1)-c1cccc3cccc-2c13", "area/10^6", 0],
  ["c1cc2ccc3cccc4ccc(c1)c2c34", "area/10^6", 0]
]}

API: the following record is the query input.
Total products for c1ccc2c(c1)ccc1ccccc12 is 0.075
